Assay system: D(2) dopamine receptor (Bos taurus)
Sequence (P20288 whole entry): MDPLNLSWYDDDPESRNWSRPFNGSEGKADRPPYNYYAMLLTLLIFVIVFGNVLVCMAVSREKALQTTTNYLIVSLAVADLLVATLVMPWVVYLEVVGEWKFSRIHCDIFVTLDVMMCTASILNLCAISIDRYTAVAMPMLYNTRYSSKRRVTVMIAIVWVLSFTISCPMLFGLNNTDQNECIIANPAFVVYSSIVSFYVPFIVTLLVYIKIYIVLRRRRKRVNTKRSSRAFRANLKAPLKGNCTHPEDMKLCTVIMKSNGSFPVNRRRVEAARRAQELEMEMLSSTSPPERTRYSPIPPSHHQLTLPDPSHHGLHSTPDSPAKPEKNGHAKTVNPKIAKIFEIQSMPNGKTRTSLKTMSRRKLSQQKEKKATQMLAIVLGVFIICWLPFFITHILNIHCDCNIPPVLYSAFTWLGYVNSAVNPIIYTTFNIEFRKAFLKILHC
Test method notes: Binding Affinity was tested on high Affinity Site of Bovine dopamine receptor D2. Tested for ability to displace the radioligand [3H]pramipexole at the binding site.
Measured quantity: pKi
The read-out pKi is expressed as -log10 of concentration in moles per litre.

Inquiry: Please give the measured pKi for this compound: CCCN(CCC)C1CC=C(C#C[Si](C)(C)C)CC1 (stereo unspecified)
Reply text: 7.52

* * *

Assay system: D(2) dopamine receptor (Homo sapiens)
Sequence (P14416 whole entry): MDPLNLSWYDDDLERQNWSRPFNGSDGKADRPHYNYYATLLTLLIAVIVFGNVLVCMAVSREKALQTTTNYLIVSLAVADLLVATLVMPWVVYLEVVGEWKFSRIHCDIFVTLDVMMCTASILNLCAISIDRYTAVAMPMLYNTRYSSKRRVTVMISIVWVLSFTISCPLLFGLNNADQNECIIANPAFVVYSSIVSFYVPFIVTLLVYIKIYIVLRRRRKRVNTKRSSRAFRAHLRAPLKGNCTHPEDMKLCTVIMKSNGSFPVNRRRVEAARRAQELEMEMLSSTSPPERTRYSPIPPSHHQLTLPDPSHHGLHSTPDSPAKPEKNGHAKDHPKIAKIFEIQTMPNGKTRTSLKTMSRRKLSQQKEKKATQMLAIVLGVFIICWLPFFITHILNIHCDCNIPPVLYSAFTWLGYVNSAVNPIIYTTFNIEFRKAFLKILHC
Test method notes: Binding Affinity of Compound of Dopamine receptor D2S
Measured quantity: pKi
Scale for pKi: -log10 of concentration given in mol/L; no unit attached.

Inquiry: Which pKi is reported for this compound? C#CC1=CCC(N(CCC)CCC)CC1 (configuration not stated)
Reply text: 4.92
